# Tgt: Spike protein of SARS-CoV-2 strain D614G (hCoV-19/France/GE1973/2020) (SARS-CoV-2, UniProt P0DTC2 14-1273)
# Protocol Description: cell-based or functional assay
Below, each entry is listed alongside its reported IC50, S-Fuse neutralization of live virus.
Property Measured: IC50, S-Fuse neutralization of live virus

Binder	Test Value
SPK002M A1 antibody (antibody, human IgG1, kappa, V domains shown) VH: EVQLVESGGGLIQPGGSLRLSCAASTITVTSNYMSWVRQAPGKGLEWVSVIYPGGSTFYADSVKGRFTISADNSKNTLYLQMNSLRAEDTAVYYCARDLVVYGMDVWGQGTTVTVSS VL: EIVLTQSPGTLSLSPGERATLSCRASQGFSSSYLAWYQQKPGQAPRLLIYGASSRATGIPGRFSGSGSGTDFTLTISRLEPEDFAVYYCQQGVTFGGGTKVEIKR	0.08 µg/mL
SPK002M A5 antibody (antibody, human IgG1, kappa, V domains shown) VH: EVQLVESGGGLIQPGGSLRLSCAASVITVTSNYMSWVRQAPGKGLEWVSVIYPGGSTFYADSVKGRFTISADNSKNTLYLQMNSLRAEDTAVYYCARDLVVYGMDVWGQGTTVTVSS VL: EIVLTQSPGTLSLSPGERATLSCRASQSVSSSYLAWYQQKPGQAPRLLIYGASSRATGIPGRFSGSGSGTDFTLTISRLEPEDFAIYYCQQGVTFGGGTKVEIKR	0.09 µg/mL
SPK002M A2 antibody (antibody, human IgG1, kappa, V domains shown) VH: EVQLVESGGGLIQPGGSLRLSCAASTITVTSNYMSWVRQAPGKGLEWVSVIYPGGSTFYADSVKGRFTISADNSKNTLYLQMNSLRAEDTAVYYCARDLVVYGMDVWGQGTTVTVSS VL: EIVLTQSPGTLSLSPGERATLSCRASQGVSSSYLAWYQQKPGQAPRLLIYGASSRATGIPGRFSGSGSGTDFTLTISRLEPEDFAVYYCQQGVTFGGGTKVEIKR	0.1 µg/mL
SPK002M A4 antibody (antibody, human IgG1, kappa, V domains shown) VH: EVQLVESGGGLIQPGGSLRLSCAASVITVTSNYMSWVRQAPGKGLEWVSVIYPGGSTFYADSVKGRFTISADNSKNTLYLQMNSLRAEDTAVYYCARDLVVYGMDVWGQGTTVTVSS VL: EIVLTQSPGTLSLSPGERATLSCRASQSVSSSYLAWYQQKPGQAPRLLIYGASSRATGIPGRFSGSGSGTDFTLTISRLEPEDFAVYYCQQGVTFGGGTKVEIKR	0.11 µg/mL
SPK002M C2 antibody (antibody, human IgG1, kappa, V domains shown) VH: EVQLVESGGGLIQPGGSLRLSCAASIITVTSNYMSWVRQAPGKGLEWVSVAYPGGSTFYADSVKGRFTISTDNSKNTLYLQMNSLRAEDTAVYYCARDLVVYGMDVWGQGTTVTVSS VL: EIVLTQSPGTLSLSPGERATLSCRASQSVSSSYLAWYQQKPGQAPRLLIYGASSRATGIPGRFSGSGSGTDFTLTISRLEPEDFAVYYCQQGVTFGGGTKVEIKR	0.06 µg/mL
